Biological target: T1, IL-2 receptor βγ complex (human, UniProt P14784 27-551; P31785 23-369)
T1 sequence (looked up) 1: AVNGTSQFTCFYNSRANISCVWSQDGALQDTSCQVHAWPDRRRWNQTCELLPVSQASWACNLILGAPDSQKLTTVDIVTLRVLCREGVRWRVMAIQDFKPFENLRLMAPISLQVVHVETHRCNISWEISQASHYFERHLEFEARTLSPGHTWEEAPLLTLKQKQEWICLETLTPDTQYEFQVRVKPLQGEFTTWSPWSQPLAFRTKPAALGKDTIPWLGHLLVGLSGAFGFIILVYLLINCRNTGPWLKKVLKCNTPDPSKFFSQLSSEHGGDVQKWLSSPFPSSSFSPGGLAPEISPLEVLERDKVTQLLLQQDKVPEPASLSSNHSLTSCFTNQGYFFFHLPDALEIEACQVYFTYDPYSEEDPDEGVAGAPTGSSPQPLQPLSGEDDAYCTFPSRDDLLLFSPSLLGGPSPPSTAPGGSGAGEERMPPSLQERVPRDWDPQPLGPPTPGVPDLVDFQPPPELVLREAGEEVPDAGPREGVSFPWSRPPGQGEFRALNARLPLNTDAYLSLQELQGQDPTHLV
T1 sequence (looked up) 2: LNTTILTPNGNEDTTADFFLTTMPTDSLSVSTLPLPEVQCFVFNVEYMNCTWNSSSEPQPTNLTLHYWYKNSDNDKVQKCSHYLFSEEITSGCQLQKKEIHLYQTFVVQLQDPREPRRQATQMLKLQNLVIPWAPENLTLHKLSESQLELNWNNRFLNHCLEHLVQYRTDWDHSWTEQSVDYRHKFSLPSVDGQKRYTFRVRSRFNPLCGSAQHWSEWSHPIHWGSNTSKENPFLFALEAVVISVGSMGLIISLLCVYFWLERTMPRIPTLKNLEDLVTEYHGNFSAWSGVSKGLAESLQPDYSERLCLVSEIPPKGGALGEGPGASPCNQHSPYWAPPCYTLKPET
Test: cell-based or functional assay
Primed or numbered codes have the meaning given here. [ ]: non-standard residue; d: D form. Ygp = O-(8x polyethylene glycol-amino)-tyrosine (Tyr, amino-capped PEG8); Yn3 = O-(9x polyethylene glycol-azido)-tyrosine (Tyr, azide-capped PEG9); PEG4′ = 4x polyethylene glycol; hSer = N[C@@H](CCO)C(=O)O; Nle = CCCC[C@H](N)C(=O)O
assay_metric: Average EC50, pSTAT5 Assay (T cells) (nM)
Respond numerically; units are nM and should not be typed.

Suppose we examine the binder CMP-138 (ligand, bridge (positions not given here); not fully specified (bridges); ends not checked) [PEG4′]SGGPGPAGMKGLPGS[PEG4′]APTSSSTKKTQLQLEHLLLDLQ[Nle]ILNGIENYKNPKLTR[Nle]L[hSer][Yn3]KF[Ygp][Nle]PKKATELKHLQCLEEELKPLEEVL[hSer]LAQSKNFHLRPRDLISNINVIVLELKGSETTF[hSer]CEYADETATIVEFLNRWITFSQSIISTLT ; what Average EC50, pSTAT5 Assay (T cells) value has been reported?
20.1
